Molecular target: NK1 (Homo sapiens, UniProt P25103)
Sequence (P25103 whole entry): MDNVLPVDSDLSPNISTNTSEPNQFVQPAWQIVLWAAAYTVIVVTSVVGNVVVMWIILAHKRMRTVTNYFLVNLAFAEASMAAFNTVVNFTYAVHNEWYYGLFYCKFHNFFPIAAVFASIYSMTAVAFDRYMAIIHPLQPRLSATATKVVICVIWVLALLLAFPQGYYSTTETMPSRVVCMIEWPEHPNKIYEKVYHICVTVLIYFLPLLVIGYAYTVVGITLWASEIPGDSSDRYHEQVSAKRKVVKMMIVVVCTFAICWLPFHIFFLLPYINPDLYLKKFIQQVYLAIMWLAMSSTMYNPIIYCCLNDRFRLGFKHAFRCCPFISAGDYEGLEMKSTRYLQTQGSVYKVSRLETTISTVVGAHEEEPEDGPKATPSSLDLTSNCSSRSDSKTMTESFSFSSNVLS
Test: Signal transduction (ST), intracellular Ca++ (FLIPR), NK1 antagonism
Format: cell-based
Settings: read-out: pIC50 NK1 (converted)
Rule for this label: yes (1) means IC50 is less than 8 nM; no (0) means IC50 is at least 8 nM.

I wonder whether O=C(c1ccccc1Cl)N1CCCC(N2CCCN([C@@H]3CCN(C(=O)c4cc(C(F)(F)F)cc(C(F)(F)F)c4)[C@H](Cc4ccccc4)C3)CC2)C1 (stereo partly shown) [Compound 119] has IC50 below 8 nM. Can you tell?
no (0)

I wonder whether CC(C)NC(=O)N1CCCC(N2CCN(C3CCN(C(=O)c4cc(C(F)(F)F)cc(C(F)(F)F)c4)C(Cc4ccccc4)C3)CC2)C1 (stereo not shown) [Compound 66] has IC50 below 8 nM. Can you tell?
yes (1)

I wonder whether COc1ccc(S(=O)(=O)N2CCCC(N3CCN([C@H]4CCN(C(=O)c5cc(C(F)(F)F)cc(C(F)(F)F)c5)[C@H](Cc5ccccc5)C4)CC3)C2)cc1F (stereo partly shown) [Compound 7] has IC50 below 8 nM. Can you tell?
no (0)

I wonder whether Cc1noc(C)c1S(=O)(=O)N1CCCC(N2CCN([C@H]3CCN(C(=O)c4cc(C(F)(F)F)cc(C(F)(F)F)c4)[C@H](Cc4ccccc4)C3)CC2)C1 (stereo partly shown) [Compound 39] has IC50 below 8 nM. Can you tell?
yes (1)

I wonder whether COc1ccc(S(=O)(=O)N2CCCC(N3CCN([C@H]4CCN(C(=O)c5cc(C(F)(F)F)cc(C(F)(F)F)c5)[C@H](Cc5ccccc5)C4)CC3)C2)cc1 (stereo partly shown) [Compound 72] has IC50 below 8 nM. Can you tell?
no (0)

I wonder whether O=C(C1CCOC1)N1CCCC(N2CCN([C@H]3CCN(C(=O)c4cc(C(F)(F)F)cc(C(F)(F)F)c4)[C@H](Cc4ccccc4)C3)CC2)C1 (stereo partly shown) [Compound 16] has IC50 below 8 nM. Can you tell?
no (0)

I wonder whether O=C(c1cc(C(F)(F)F)cc(C(F)(F)F)c1)N1CC[C@H](N2CCN(C3CCCN(S(=O)(=O)c4ccsc4)C3)CC2)C[C@H]1Cc1ccccc1 (stereo partly shown) [Compound 29] has IC50 below 8 nM. Can you tell?
yes (1)

I wonder whether O=C(c1cc(C(F)(F)F)cc(C(F)(F)F)c1)N1CC[C@H](N2CCN(C3CCCN(C(CO)c4ccoc4)C3)CC2)C[C@H]1Cc1ccccc1 (stereo partly shown) [Compound 79] has IC50 below 8 nM. Can you tell?
no (0)

I wonder whether O=C(c1cc(C(F)(F)F)cc(C(F)(F)F)c1)N1CC[C@H](N2CCN(C3CCCN(S(=O)(=O)c4ccccc4)C3)CC2)C[C@H]1Cc1ccccc1 (stereo partly shown) [Compound 28] has IC50 below 8 nM. Can you tell?
no (0)

Source of measurements: patent US7572786B2
